system: ovariectomized (OVX) female Sprague Dawley rats; conditions: rat, in vivo, po, 0.1 mg/kg, 4 days

{"input-smiles": "Oc1ccc(-c2ccc3cc(O)ccc3c2Cc2ccc(OCCN3CCCC3)cc2)cc1", "Uterine Weight (% increase vs. OVX), %": "−12.4"}
{"input-smiles": "Oc1ccc(-c2ccc3cc(O)ccc3c2Cc2ccc(OCCN3CCOCC3)cc2)cc1", "Uterine Weight (% increase vs. OVX), %": 50.5}
{"input-smiles": "CC(C)(C)C(=O)Oc1ccc(-c2ccc3cc(OC(=O)C(C)(C)C)ccc3c2Cc2ccc(OCCN3CCCCC3)cc2)cc1", "Uterine Weight (% increase vs. OVX), %": 52.1}
{"input-smiles": "CC1(C)CCN(CCOc2ccc(Cc3c(-c4ccc(O)cc4)ccc4cc(O)ccc34)cc2)C1", "Uterine Weight (% increase vs. OVX), %": 40.8}
{"input-smiles": "COc1ccc(-c2ccc3cc(OC)ccc3c2Cc2ccc(OCCN3CCCCC3)cc2)cc1.Cl", "Uterine Weight (% increase vs. OVX), %": 23.1}
{"input-smiles": "CCN(CC)CCOc1ccc(Cc2c(-c3ccc(OC)cc3)ccc3cc(OC)ccc23)cc1.Cl", "Uterine Weight (% increase vs. OVX), %": 83.9}
{"input-smiles": "CCCCS(=O)(=O)Oc1ccc(-c2ccc3cc(OS(=O)(=O)CCCC)ccc3c2Cc2ccc(OCCN3CCCCC3)cc2)cc1", "Uterine Weight (% increase vs. OVX), %": 43.2}
{"input-smiles": "O=C(Oc1ccc(-c2ccc3cc(OC(=O)c4ccccc4)ccc3c2Cc2ccc(OCCN3CCCCC3)cc2)cc1)c1ccccc1", "Uterine Weight (% increase vs. OVX), %": 7.1}
